Test: Elimination half life in Sprague-Dawley rat at 0.8 mg/kg, iv administered as single bolus dose by LC-MS/MS analysis
Assay type: ADME, organism-based
Details: in vivo, read-out: beta t1/2
Positions of bridges follow the written chain, without caps; N, C: chain ends. Non-standard residues stand in square brackets, D forms with d. Residues, ends and D or L forms follow the SMILES beside them. *: point of attachment. Heptanoyl(6-Me) = CC(C)CCCCC(=O)*; Dab = NCC[C@H](N)C(=O)O
measure: half-life (h)
Give a bare numeral; the unit h is implied.

Inquiry: For the compound shown here, CC(C)CCCCC(=O)N[C@@H](CCN)C(=O)N[C@H](C(=O)N[C@@H](CCN)C(=O)N[C@H]1CCNC(=O)[C@H]([C@@H](C)O)NC(=O)[C@H](CCN)NC(=O)[C@H](CCN)NC(=O)[C@H](CC(C)C)NC(=O)[C@@H](CC(C)C)NC(=O)[C@H](CCN)NC1=O)[C@@H](C)O [COLISTIN B] ({Heptanoyl(6-Me)}-[Dab]T[Dab][Dab][Dab][dL]L[Dab][Dab]T; lactam 4-C) , give the reported half-life.
Reply text: 1.52

---

Assay: Drug recovery in Sprague-Dawley rat urine at 0.8 mg/kg, iv administered as single bolus dose by LC-MS/MS analysis
Type: ADME, organism-based
Conditions: read-out: Drug recovery
Positions of bridges follow the written chain, without caps; N, C: chain ends. Non-standard residues stand in square brackets, D forms with d. Residues, ends and D or L forms follow the SMILES beside them. *: point of attachment. Heptanoyl(6-Me) = CC(C)CCCCC(=O)*; X1 = CC[C@@H](C)CCCCC(=O)*; X2 = CC[C@H](C)CCCCC(=O)*; Dab = NCC[C@H](N)C(=O)O
measure: dose excreted (%)
Give a bare numeral; the unit % is implied.

Use these answered entries as a reference point.
{"compound": "CC[C@@H](C)CCCCC(=O)N[C@@H](CCN)C(=O)N[C@H](C(=O)N[C@@H](CCN)C(=O)N[C@H]1CCNC(=O)[C@H]([C@@H](C)O)NC(=O)[C@H](CCN)NC(=O)[C@H](CCN)NC(=O)[C@H](CC(C)C)NC(=O)[C@@H](Cc2ccccc2)NC(=O)[C@H](CCN)NC1=O)[C@@H](C)O (X1-[Dab]T[Dab][Dab][Dab][dF]L[Dab][Dab]T; lactam 4-C)", "experimental result": 0.13}
{"compound": "CC(C)CCCCC(=O)N[C@@H](CCN)C(=O)N[C@H](C(=O)N[C@@H](CCN)C(=O)N[C@H]1CCNC(=O)[C@H]([C@@H](C)O)NC(=O)[C@H](CCN)NC(=O)[C@H](CCN)NC(=O)[C@H](CC(C)C)NC(=O)[C@@H](Cc2ccccc2)NC(=O)[C@H](CCN)NC1=O)[C@@H](C)O [POLYMYXIN B2] ({Heptanoyl(6-Me)}-[Dab]T[Dab][Dab][Dab][dF]L[Dab][Dab]T; lactam 4-C)", "experimental result": 0.09}
{"compound": "CC[C@H](C)CCCCC(=O)N[C@@H](CCN)C(=O)N[C@H](C(=O)N[C@@H](CCN)C(=O)N[C@H]1CCNC(=O)[C@H]([C@@H](C)O)NC(=O)[C@H](CCN)NC(=O)[C@H](CCN)NC(=O)[C@H](CC(C)C)NC(=O)[C@@H](CC(C)C)NC(=O)[C@H](CCN)NC1=O)[C@@H](C)O (X2-[Dab]T[Dab][Dab][Dab][dL]L[Dab][Dab]T; lactam 4-C)", "experimental result": 0.14}

Now for a further compound.
Inquiry: For the compound shown here, CC(C)CCCCC(=O)N[C@@H](CCN)C(=O)N[C@H](C(=O)N[C@@H](CCN)C(=O)N[C@H]1CCNC(=O)[C@H]([C@@H](C)O)NC(=O)[C@H](CCN)NC(=O)[C@H](CCN)NC(=O)[C@H](CC(C)C)NC(=O)[C@@H](CC(C)C)NC(=O)[C@H](CCN)NC1=O)[C@@H](C)O [COLISTIN B] ({Heptanoyl(6-Me)}-[Dab]T[Dab][Dab][Dab][dL]L[Dab][Dab]T; lactam 4-C) , give the reported dose excreted.
Reply text: 0.24

---

Experiment: Total clearance in Sprague-Dawley rat at 0.8 mg/kg, iv administered as single bolus dose by LC-MS/MS analysis
Type: ADME, organism-based
Conditions: in vivo
Positions of bridges follow the written chain, without caps; N, C: chain ends. Non-standard residues stand in square brackets, D forms with d. Residues, ends and D or L forms follow the SMILES beside them. *: point of attachment. Heptanoyl(6-Me) = CC(C)CCCCC(=O)*; X1 = CC[C@@H](C)CCCCC(=O)*; X2 = CC[C@H](C)CCCCC(=O)*; Dab = NCC[C@H](N)C(=O)O
measure: clearance (mL/min/kg)
Give a bare numeral; the unit mL/min/kg is implied.

Use these answered entries as a reference point.
{"molecule": "CC[C@H](C)CCCCC(=O)N[C@@H](CCN)C(=O)N[C@H](C(=O)N[C@@H](CCN)C(=O)N[C@H]1CCNC(=O)[C@H]([C@@H](C)O)NC(=O)[C@H](CCN)NC(=O)[C@H](CCN)NC(=O)[C@H](CC(C)C)NC(=O)[C@@H](CC(C)C)NC(=O)[C@H](CCN)NC1=O)[C@@H](C)O (X2-[Dab]T[Dab][Dab][Dab][dL]L[Dab][Dab]T; lactam 4-C)", "experimental result": 2.75}
{"molecule": "CC[C@@H](C)CCCCC(=O)N[C@@H](CCN)C(=O)N[C@H](C(=O)N[C@@H](CCN)C(=O)N[C@H]1CCNC(=O)[C@H]([C@@H](C)O)NC(=O)[C@H](CCN)NC(=O)[C@H](CCN)NC(=O)[C@H](CC(C)C)NC(=O)[C@@H](Cc2ccccc2)NC(=O)[C@H](CCN)NC1=O)[C@@H](C)O (X1-[Dab]T[Dab][Dab][Dab][dF]L[Dab][Dab]T; lactam 4-C)", "experimental result": 2.39}
{"molecule": "CC(C)CCCCC(=O)N[C@@H](CCN)C(=O)N[C@H](C(=O)N[C@@H](CCN)C(=O)N[C@H]1CCNC(=O)[C@H]([C@@H](C)O)NC(=O)[C@H](CCN)NC(=O)[C@H](CCN)NC(=O)[C@H](CC(C)C)NC(=O)[C@@H](CC(C)C)NC(=O)[C@H](CCN)NC1=O)[C@@H](C)O [COLISTIN B] ({Heptanoyl(6-Me)}-[Dab]T[Dab][Dab][Dab][dL]L[Dab][Dab]T; lactam 4-C)", "experimental result": 3.05}

Now for a further molecule.
Inquiry: For the molecule shown here, CC(C)CCCCC(=O)N[C@@H](CCN)C(=O)N[C@H](C(=O)N[C@@H](CCN)C(=O)N[C@H]1CCNC(=O)[C@H]([C@@H](C)O)NC(=O)[C@H](CCN)NC(=O)[C@H](CCN)NC(=O)[C@H](CC(C)C)NC(=O)[C@@H](Cc2ccccc2)NC(=O)[C@H](CCN)NC1=O)[C@@H](C)O [POLYMYXIN B2] ({Heptanoyl(6-Me)}-[Dab]T[Dab][Dab][Dab][dF]L[Dab][Dab]T; lactam 4-C) , give the reported clearance.
Reply text: 1.96

---

Assay: AUC (0 to infinity) in Sprague-Dawley rat at 0.8 mg/kg, iv administered as single bolus dose by LC-MS/MS analysis
Type: ADME, organism-based
Set-up: dose 0.8 mg/kg, route intravenous, time infinity
Settings: in vivo
Positions of bridges follow the written chain, without caps; N, C: chain ends. Non-standard residues stand in square brackets, D forms with d. Residues, ends and D or L forms follow the SMILES beside them. *: point of attachment. Heptanoyl(6-Me) = CC(C)CCCCC(=O)*; X1 = CC[C@@H](C)CCCCC(=O)*; Dab = NCC[C@H](N)C(=O)O
Reported values of AUC(0-inf) for individual entries
Give a bare numeral; the unit ng·h/mL is implied.

Use these answered entries as a reference point.
{"compound": "CC[C@@H](C)CCCCC(=O)N[C@@H](CCN)C(=O)N[C@H](C(=O)N[C@@H](CCN)C(=O)N[C@H]1CCNC(=O)[C@H]([C@@H](C)O)NC(=O)[C@H](CCN)NC(=O)[C@H](CCN)NC(=O)[C@H](CC(C)C)NC(=O)[C@@H](Cc2ccccc2)NC(=O)[C@H](CCN)NC1=O)[C@@H](C)O (X1-[Dab]T[Dab][Dab][Dab][dF]L[Dab][Dab]T; lactam 4-C)", "experimental result": 6080}
{"compound": "CC(C)CCCCC(=O)N[C@@H](CCN)C(=O)N[C@H](C(=O)N[C@@H](CCN)C(=O)N[C@H]1CCNC(=O)[C@H]([C@@H](C)O)NC(=O)[C@H](CCN)NC(=O)[C@H](CCN)NC(=O)[C@H](CC(C)C)NC(=O)[C@@H](Cc2ccccc2)NC(=O)[C@H](CCN)NC1=O)[C@@H](C)O [POLYMYXIN B2] ({Heptanoyl(6-Me)}-[Dab]T[Dab][Dab][Dab][dF]L[Dab][Dab]T; lactam 4-C)", "experimental result": 6930}

Now for a further compound.
Inquiry: For the compound shown here, CC(C)CCCCC(=O)N[C@@H](CCN)C(=O)N[C@H](C(=O)N[C@@H](CCN)C(=O)N[C@H]1CCNC(=O)[C@H]([C@@H](C)O)NC(=O)[C@H](CCN)NC(=O)[C@H](CCN)NC(=O)[C@H](CC(C)C)NC(=O)[C@@H](CC(C)C)NC(=O)[C@H](CCN)NC1=O)[C@@H](C)O [COLISTIN B] ({Heptanoyl(6-Me)}-[Dab]T[Dab][Dab][Dab][dL]L[Dab][Dab]T; lactam 4-C) , give the reported AUC(0-inf).
Reply text: 4600

Data provenance: ChEMBL document CHEMBL4004810
